target: Protein kinase C alpha type (Homo sapiens, UniProt P17252); assay: Displacement of [20-3H]-PDBU ligand from recombinant protein kinase C (baculovirus)
Recorded measurements of pKi, one per entry
Units for pKi: none; it is -log10 of a concentration expressed in mol/L.

Observe how each entry below is paired with its result.
| compound | pKi |
| --- | --- |
| CC(C)CC(C/C=C1/CC(CO)(COC(=O)C(C)(C)C)OC1=O)CC(C)C (stereo not given) | 8.54 |
| CC(C)CC(C/C=C1/CC(CO)(CNC(=O)C(C)(C)C)OC1=O)CC(C)C (stereo not given) | 6.37 |
| CC(C)CC(C/C=C1\CC(CO)(COC(=O)CC(C(C)C)C(C)C)OC1=O)CC(C)C (stereo not given) | 8.35 |
| CC(C)C(C/C=C1\CC(CO)(COC(=O)C(C)(C)C)OC1=O)C(C)C (stereo not given) | 7.95 |
| CC(C)CC(C/C=C1/CC(CO)(CN(O)C(=O)C(C)(C)C)OC1=O)CC(C)C (stereo not given) | 8.27 |

Ask | Quick check: pKi on Protein kinase C alpha type (Homo sapiens, UniProt P17252), item CC(C)CC(C/C=C1/CC(CO)(COC(=O)C(C)(C)C)NC1=O)CC(C)C (stereo not given) ?
Reply | 5.36

Ask | Find pKi (Protein kinase C alpha type (Homo sapiens, UniProt P17252)) for the entry CC(C)CC(C/C=C1\CC(CO)(COC(=O)C(C)(C)C)N(O)C1=O)CC(C)C (stereo not given)
Reply | 4.98

----------
molecular target: Protein kinase C alpha type (Homo sapiens, UniProt P17252); experiment: Displacement of [20-3H]-PDBU ligand from recombinant protein kinase C (baculovirus)
recordedMetric: Ki (nM)
I only need the number, in nM, no unit after it.

| molecule | unitOfMeasure | Ki |
| --- | --- | --- |
| CC(C)CC(C/C=C1\CC(CO)(COC(=O)C(C)(C)C)OC1=O)CC(C)C (stereo not drawn) | nM | 4.51 |
| CC(C)CC(C/C=C1\CC(CO)(COC(=O)C(C)(C)C)NC1=O)CC(C)C (stereo not drawn) | nM | 4840 |

Ask | Which measured Ki value corresponds to CC(C)CC(C/C=C1\CC(CO)(CN(O)C(=O)C(C)(C)C)OC1=O)CC(C)C (stereo not drawn) ?
Reply | 4.81

----------
assay: Partition coefficient (logP); type: physicochemical; conditions: octanol/water
recordedMetric: logP
// return a plain number; no unit text

Consider the reported logP for these molecules:
| molecule | logP |
| --- | --- |
| CC(C)CC(C/C=C1\CC(CO)(CN(O)C(=O)C(C)(C)C)OC1=O)CC(C)C (configuration not stated) | 3.58 |
| CC(C)C(C/C=C1\CC(CO)(COC(=O)CC(C(C)C)C(C)C)OC1=O)C(C)C (configuration not stated) | 5.89 |
| CC(C)CC(C/C=C1\CC(CO)(COC(=O)C(C)(C)C)OC1=O)CC(C)C (configuration not stated) | 5.03 |

Ask | Name the recorded logP for CC(C)CC(C/C=C1\CC(CO)(COC(=O)CC(C(C)C)C(C)C)OC1=O)CC(C)C (configuration not stated) .
Reply | 6.88

Ask | logP for CC(C)CC(C/C=C1/CC(CO)(COC(=O)CC(C(C)C)C(C)C)OC1=O)CC(C)C (configuration not stated) ?
Reply | 6.88

----------
Reported Ki values are given for each entry in this list.
target: Protein kinase C alpha type (Homo sapiens, UniProt P17252); test: Displacement of [20-3H]-PDBU ligand from recombinant protein kinase C (baculovirus)
Give the number; nM is assumed, so skip it.

| compound | Ki, nM |
| --- | --- |
| CC(C)C(C/C=C1/CC(CO)(COC(=O)C(C)(C)C)OC1=O)C(C)C (stereo not drawn) | 8.32 |
| CC(C)CC(C/C=C1/CC(CO)(COC(=O)CC(C(C)C)C(C)C)OC1=O)CC(C)C (stereo not drawn) | 6.87 |

Ask | Item under review: CC(C)CC(C/C=C1\CC(CO)(CNC(=O)C(C)(C)C)OC1=O)CC(C)C (stereo not drawn) . Reported Ki?
Reply | 1260

----------
# logP listing for each entry below
experiment: Partition coefficient (logP); format: physicochemical; settings: octanol/water
Write no unit; give the number alone.

# example entries with known answers
| compound | logP |
| --- | --- |
| CC(C)CC(C/C=C1\CC(CO)(CNC(=O)C(C)(C)C)OC1=O)CC(C)C (configuration not stated) | 3.95 |
| CC(C)CC(C/C=C1/CC(CO)(COC(=O)C(C)(C)C)NC1=O)CC(C)C (configuration not stated) | 5.01 |
| CC(C)CC(C/C=C1/CC(CO)(CN(O)C(=O)C(C)(C)C)OC1=O)CC(C)C (configuration not stated) | 3.58 |
| CC(C)CC(C/C=C1/CC(CO)(COC(=O)C(C)(C)C)OC1=O)CC(C)C (configuration not stated) | 5.03 |
| CC(C)CC(C/C=C1/CC(CO)(CNC(=O)C(C)(C)C)OC1=O)CC(C)C (configuration not stated) | 3.95 |

Ask | # logP lookup, item CC(C)C(C/C=C1/CC(CO)(COC(=O)CC(C(C)C)C(C)C)OC1=O)C(C)C (configuration not stated)
Reply | 5.89

Ask | What measured logP goes with CC(C)CC(C/C=C1\CC(CO)(COC(=O)C(C)(C)C)NC1=O)CC(C)C (configuration not stated) ?
Reply | 5.01
